# Test system: bortezomib-resistant RPMI 8226 MM cell line
# experiment-notes: IC50 of bortezomib in bortezomib-resistant RPMI 8226 cells
# Format: cell-based
# conditions: RPMI8226 bortezomib-resistant cells
property-measured: IC50 (nM)
Numbers only, in nM.

// query Determine from records and report IC50 for CC(C)C[C@H](NC(=O)[C@H](Cc1ccccc1)NC(=O)c1cnccn1)B(O)O
// result 250
